- Target Entity: Hypoxia-inducible factor 1-alpha (Homo sapiens) (UniProt Q16665)
- Sequence (Q16665 whole entry, looked up): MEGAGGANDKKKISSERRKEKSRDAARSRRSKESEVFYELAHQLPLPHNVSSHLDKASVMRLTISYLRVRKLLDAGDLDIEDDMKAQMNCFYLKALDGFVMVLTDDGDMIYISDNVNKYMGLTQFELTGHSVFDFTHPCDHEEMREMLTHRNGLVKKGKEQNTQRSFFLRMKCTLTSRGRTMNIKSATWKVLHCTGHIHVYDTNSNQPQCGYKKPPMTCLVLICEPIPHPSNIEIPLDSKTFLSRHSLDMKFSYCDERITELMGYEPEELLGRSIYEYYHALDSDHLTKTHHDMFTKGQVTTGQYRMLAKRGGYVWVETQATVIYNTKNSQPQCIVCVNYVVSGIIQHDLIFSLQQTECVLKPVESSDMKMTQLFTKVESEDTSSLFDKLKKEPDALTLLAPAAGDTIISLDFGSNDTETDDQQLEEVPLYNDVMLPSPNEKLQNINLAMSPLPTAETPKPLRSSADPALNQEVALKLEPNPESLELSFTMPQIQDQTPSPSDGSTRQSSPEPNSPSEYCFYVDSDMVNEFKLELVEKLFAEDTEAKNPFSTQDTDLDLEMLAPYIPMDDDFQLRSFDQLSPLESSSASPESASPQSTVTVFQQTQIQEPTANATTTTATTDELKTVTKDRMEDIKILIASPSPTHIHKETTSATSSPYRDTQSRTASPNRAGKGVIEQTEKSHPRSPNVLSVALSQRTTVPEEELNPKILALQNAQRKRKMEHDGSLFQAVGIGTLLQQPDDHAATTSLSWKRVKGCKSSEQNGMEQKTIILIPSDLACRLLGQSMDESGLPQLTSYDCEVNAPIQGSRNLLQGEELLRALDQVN
- Assay Notes: ATG_HIF1a_CIS: Attagene CIS-FACTORIAL HepG2 Assay for human Hypoxia Inducible Factor 1 (HIF1A) (AID 2282951)
- Run Conditions: HepG2 Attagene cis-factorial HIF1a reporter transcription; actives raise or lower the signal
The source made the active and inactive calls. Rule for the calls: active = hit-call score of the fitted dose curve at least 0.9, where 1 is the maximum; inactive = score below 0.9.
Choose one outcome from this list and give only that: 1 = active, -1 = inactive

Q. Recorded test call requested for CCOC(=O)c1ccccc1OC
A. -1

Q. Try C=CC(=O)NCOCC(C)C next.
A. -1

Q. Try COc1c(Cl)c(Cl)c(Cl)c(Cl)c1Cl next.
A. -1

Q. Try CCCCC(CC)COCCC#N (stereo not given) next.
A. -1

Q. Try BrC1CCC(Br)C(Br)CCC(Br)C(Br)CCC1Br (stereo not given) next.
A. -1

Q. Try CC1CCC2CC1C2(C)C (stereo not given) next.
A. -1

Q. Try O=Nc1ccc(Nc2ccccc2)cc1 next.
A. 1

Q. Try Clc1ccc(Cl)c(Cl)c1Cl next.
A. -1

Q. Try CC1CCC(C(C)CS)CC1S (stereo not given) next.
A. 1

Q. Try CCCCCCCCCCN next.
A. -1

Q. Try O=C(O)c1cn(-c2ccc(F)cc2)c2cc(N3CCNCC3)c(F)cc2c1=O next.
A. -1

Q. Try COC(C)CCO (stereo not given) next.
A. -1

Q. Try O=C(Nc1ccccc1)c1cc([N+](=O)[O-])ccc1Cl next.
A. 1

Q. Try C=CC(=O)OCC(O)COc1ccccc1 (stereo not given) next.
A. -1

Q. Try Cc1ccc2n[nH]nc2c1 next.
A. -1

Q. Try Sc1nc(S)nc(S)n1 next.
A. -1

Q. Try CCCOCC(C)O (stereo not given) next.
A. 1

Q. Try CC(C)C1CCC(O)CC1 (stereo not given) next.
A. -1

Q. Try COc1cc(C(C)(C)C)c(O)c(C(C)(C)C)c1 next.
A. -1

Q. Try Nc1cc(Cl)c(O)c(Cl)c1 next.
A. -1

* * *

- Assay Notes: ATG_Ets_CIS: Attagene CIS-FACTORIAL HepG2 Assay for human Erythroblast Transformation Specific (ETS) (AID 2282941)
- Run Conditions: HepG2 ETS cis-reporter transcription, actives raise or lower the signal
Calls of active or inactive are those of the source. The calls were made as follows: active = hit-call score of the fitted dose curve at least 0.9, where 1 is the maximum; inactive = score below 0.9.
Choose one outcome from this list and give only that: TRUE for active, FALSE for inactive

Q. Recorded test call requested for CCCCCNCCCCC
A. FALSE

Q. Try C=CC(C)(C)O next.
A. FALSE

Q. Try C=C(C)C1CCC(C)CC1O (centres undefined) next.
A. FALSE

Q. Try O=C(O)c1cccc(C(F)(F)F)c1 next.
A. FALSE

Q. Try O=C(O)c1cccc([N+](=O)[O-])c1 next.
A. FALSE

Q. Try CCCCCCCCCCCCN(CCCCCCCCCCCC)CCCCCCCCCCCC next.
A. FALSE

Q. Try C=C(C)[C@@H]1CCC2=CC(=O)C[C@@H](C)[C@]2(C)C1 next.
A. FALSE

Q. Try C=C[Si](OCC)(OCC)OCC next.
A. FALSE

Q. Try O=c1[nH]c(=O)n([C@H]2CCCO2)cc1F next.
A. FALSE

Q. Try O=Nc1ccc(Nc2ccccc2)cc1 next.
A. FALSE

Q. Try FC1(F)C(F)(F)C(F)(F)C2(F)C(F)(C1(F)F)C(F)(F)C(F)(F)C1(F)C(F)(F)C(F)(F)C(F)(F)C(F)(F)C12F (centres undefined) next.
A. FALSE

Q. Try NC(=O)c1ccccc1Cl next.
A. FALSE

Q. Try CCCCNC(=O)NS(=O)(=O)c1ccc(C)cc1 next.
A. FALSE

Q. Try Cc1ccc(C(C)C)cc1O next.
A. FALSE

Q. Try CC(C)Oc1ccccc1O next.
A. FALSE

Q. Try Cc1cccc(C)c1[N+](=O)[O-] next.
A. FALSE

Q. Try O=C1c2ccccc2C(=O)N1SC1CCCCC1 next.
A. TRUE

Q. Try O=C1CCCCCCCCCCOCCCCO1 next.
A. FALSE

Q. Try Nc1cc([N+](=O)[O-])ccc1O next.
A. FALSE

Q. Try CCCCCCOC(=O)CC next.
A. FALSE

Q. Try CC(=O)OCCC(C)CC(C)(C)C (centres undefined) next.
A. FALSE

Q. Try NC(=O)Nc1ccc(Cl)cc1 next.
A. FALSE

Q. Try CCN(CC)CCOC(=O)c1ccc(N)cc1 next.
A. FALSE

Q. Try Cc1ccc2n[nH]nc2c1 next.
A. FALSE

Q. Try O=c1cc(-c2ccccc2)oc2cc(O)cc(O)c12 next.
A. FALSE

Q. Try BrC1CCC(Br)C(Br)CCC(Br)C(Br)CCC1Br (centres undefined) next.
A. TRUE

Q. Try O=CCCc1ccccc1 next.
A. FALSE

Q. Try Nc1ccc(S(=O)(=O)O)c(N)c1 next.
A. FALSE

Q. Try C=CC(=O)OCCn1c(=O)n(CCOC(=O)C=C)c(=O)n(CCOC(=O)C=C)c1=O next.
A. FALSE

Q. Try CC1(C)OC[C@@H]2O[C@@]3(C(=O)O)OC(C)(C)O[C@H]3[C@@H]2O1 next.
A. FALSE

Q. Try Nc1ccc(F)c([N+](=O)[O-])c1 next.
A. FALSE

Q. Try O=C(O)c1cn(-c2ccc(F)cc2)c2cc(N3CCNCC3)c(F)cc2c1=O next.
A. FALSE

Q. Try COc1cccc(OC)c1 next.
A. FALSE

Q. Try CCCCc1ccc(N)cc1 next.
A. FALSE

Q. Try CCC(C)CCCC(C)(C)O (centres undefined) next.
A. FALSE

Q. Try O=C(Nc1ccccc1)c1cc([N+](=O)[O-])ccc1Cl next.
A. FALSE

Q. Try CCCc1ccccc1O next.
A. FALSE

Q. Try Cc1ccc(S)cc1 next.
A. FALSE

Q. Try CC(O)C(C)O (centres undefined) next.
A. FALSE

* * *

- Assay Notes: ATG_NRF2_ARE_CIS: Attagene CIS-FACTORIAL HepG2 Assay for human Nuclear Factor Erythroid 2 Related Factor 2 (NFR2) response to Antioxidant Response Elements (ARE) (AID 2282992)
- Run Conditions: HepG2 Attagene ARE/NRF2 reporter, transcription factor activity; actives raise or lower the signal
Activity calls are given as the source filed them. The calls were made as follows: active = hit-call score of the fitted dose curve at least 0.9, where 1 is the maximum; inactive = score below 0.9.
Choose one outcome from this list and give only that: yes for active, no for inactive

Q. Recorded test call requested for Cc1ccc(S)cc1
A. no

Q. Try C=CC[N+](C)(C)CC=C next.
A. no

Q. Try CCCCCCC#CC(=O)OC next.
A. yes

Q. Try Cc1ncc([N+](=O)[O-])n1C next.
A. no

Q. Try CC1CCC2CC1C2(C)C (configuration not stated) next.
A. no

Q. Try OC[C@H]1O[C@H](O[C@]2(CCl)O[C@H](CCl)[C@@H](O)[C@@H]2O)[C@H](O)[C@@H](O)[C@H]1Cl next.
A. no

Q. Try CCCc1c(OCCCOc2ccc(OCC(=O)O)cc2)ccc(C(C)=O)c1O next.
A. no

Q. Try COc1ccc(OC)c(OC)c1 next.
A. no

Q. Try COc1cc(C)cc(O)c1 next.
A. no

Q. Try Cc1ccc(C(C)C)cc1O next.
A. no

Q. Try CC(C)Oc1ccccc1O next.
A. no

Q. Try O=C(O)C[C@H](O)C[C@H](O)/C=C/c1c(C2CC2)nc2ccccc2c1-c1ccc(F)cc1 next.
A. no

Q. Try CC(C)c1cccc(O)c1 next.
A. no

Q. Try CCCc1ccccc1O next.
A. no

Q. Try CO[Si](C)(OC)c1ccccc1 next.
A. yes

Q. Try CCCC(=O)c1cc(O)c(O)cc1O next.
A. no

Q. Try C=CC(C)(O)CCC=C(C)CCC=C(C)C (configuration not stated) next.
A. yes

Q. Try Nc1ccc(S(=O)(=O)O)c(N)c1 next.
A. no

Q. Try NCCCN1CCOCC1 next.
A. no

Q. Try C[Si](O[Si](C)(C)C)O[Si](C)(C)C next.
A. no

Q. Try CCCCCC=CCC(=O)OC next.
A. no

Q. Try CC(C)(COC(=O)c1ccccc1)COC(=O)c1ccccc1 next.
A. no

Q. Try C=C(C)C(=O)Nc1ccc(Cl)c(Cl)c1 next.
A. yes

Q. Try CC1(C)OC[C@@H]2O[C@@]3(C(=O)O)OC(C)(C)O[C@H]3[C@@H]2O1 next.
A. no

Q. Try CCCCCCCCCCCCCOS(=O)(=O)O next.
A. no

Q. Try CCc1ccc(C=O)cc1 next.
A. no

Q. Try CCCC[n+]1ccccc1 next.
A. no

Q. Try CC(C)(Oc1ccc(CCNC(=O)c2ccc(Cl)cc2)cc1)C(=O)O next.
A. no

Q. Try CCCCNC(=O)NS(=O)(=O)c1ccc(C)cc1 next.
A. no

Q. Try COc1ccc(NC(=O)CC(C)=O)cc1 next.
A. no

Q. Try CC(C)(C)NC(N)=O next.
A. no

Q. Try CC1=CCC(O)(C(C)C)CC1 (configuration not stated) next.
A. no
